From: ChEMBL document CHEMBL4342418

- System: NCI-H23
- test_details: cells
- Type: functional, cell-based
- run_conditions: Homo sapiens, NCI-H23, 48 h
- Description: Antiproliferative activity against human NCI-H23 cells assessed as reduction in cell viability after 48 hrs by MTT assay
reported_endpoint: IC50

>>> result("Cc1ccc2c(c1)/C(=N\\O)C(=O)N2Cc1cn(CCCC(=O)NO)nn1")
"490 to 760 nM"
>>> result("COc1ccc2c(c1)/C(=N\\O)C(=O)N2Cc1cn(Cc2ccc(C(=O)NO)cc2)nn1")
"1400 to 2620 nM"

====

Some compounds, each annotated with its measured IC50.
- Test system: A-431
- test_details: Antiproliferative activity against human A431 cells assessed as reduction in cell viability after 24 hrs by MTT assay
- Assay type: functional, cell-based
- run_conditions: A-431, 24 h
reported_endpoint: IC50

>>> result("COc1ccc(-n2cc(CO[C@H]3O[C@@H]4O[C@@]5(C)CC[C@H]6[C@H](C)CC[C@@H]([C@H]3C)[C@@]46OO5)nn2)cc1")
"4.06 to 89.9 µM"
>>> result("C[C@H]1[C@@H](OCc2cn(-c3ccc(C#N)cc3)nn2)O[C@@H]2O[C@@]3(C)O[C@]24[C@H]1CC[C@@H](C)[C@@H]4C[C@H]3O")
"4.06 to 89.9 µM"
>>> result("CC(=O)c1cccc(-n2cc(CO[C@H]3O[C@@H]4O[C@@]5(C)O[C@]46[C@@H](CC[C@@H](C)[C@@H]6C[C@H]5O)[C@H]3C)nn2)c1")
"4.06 to 89.9 µM"
>>> result("CC(=O)c1ccc(-n2cc(CO[C@H]3O[C@@H]4O[C@@]5(C)O[C@]46[C@@H](CC[C@@H](C)[C@@H]6C[C@H]5O)[C@H]3C)nn2)cc1")
"4.06 to 89.9 µM"
>>> result("C[C@H]1[C@@H](OCc2cn(-c3ccc(C#N)cc3)nn2)O[C@@H]2O[C@@]3(C)CC[C@H]4[C@H](C)CC[C@@H]1[C@@]24OO3")
"4.06 to 89.9 µM"
>>> result("CC(=O)c1cccc(-n2cc(CO[C@H]3O[C@@H]4O[C@@]5(C)CC[C@H]6[C@H](C)CC[C@@H]([C@H]3C)[C@@]46OO5)nn2)c1")
"4.06 to 89.9 µM"
>>> result("C[C@H]1[C@@H](O)O[C@@H]2O[C@@]3(C)CC[C@H]4[C@H](C)CC[C@@H]1[C@@]24OO3 [ARTENIMOL]")
"42.4 to 52.6 µM"
>>> result("CC(=O)c1ccccc1-n1cc(CO[C@H]2O[C@@H]3O[C@@]4(C)CC[C@H]5[C@H](C)CC[C@@H]([C@H]2C)[C@@]35OO4)nn1")
"4.06 to 89.9 µM"
>>> result("C[C@H]1[C@@H](OCc2cn(-c3ccc([N+](=O)[O-])cc3)nn2)O[C@@H]2O[C@@]3(C)CC[C@H]4[C@H](C)CC[C@@H]1[C@@]24OO3")
"4.06 to 89.9 µM"
>>> result("C[C@H]1[C@@H](OCc2cn(-c3ccc(O)cc3)nn2)O[C@@H]2O[C@@]3(C)CC[C@H]4[C@H](C)CC[C@@H]1[C@@]24OO3")
"4.06 to 36.6 µM"
>>> result("C[C@H]1[C@@H](OCc2cn(-c3ccc([N+](=O)[O-])cc3)nn2)O[C@@H]2O[C@@]3(C)O[C@]24[C@H]1CC[C@@H](C)[C@@H]4C[C@H]3O")
"4.06 to 89.9 µM"
>>> result("CC(=O)c1ccccc1-n1cc(CO[C@H]2O[C@@H]3O[C@@]4(C)O[C@]35[C@@H](CC[C@@H](C)[C@@H]5C[C@H]4O)[C@H]2C)nn1")
"4.06 to 89.9 µM"

====

Some compounds, each annotated with its measured IC50.
- System: SK-N-SH
- test_details: Antiproliferative activity against human SK-N-SH cells by MTT assay
- Assay type: functional, cell-based
reported_endpoint: IC50

>>> result("COc1cc(/C=C/C(=O)c2ccc(OCCCn3cc(CSc4nnnn4C)nn3)cc2)cc(OC)c1OC")
"1.52 to 10.4 µM"
>>> result("COc1cccc(Cn2cc(CNc3ccc(C(=O)/C=C/c4cccnc4)cc3)nn2)c1")
"1.53 to 2.73 µM"
>>> result("COc1cc(/C=C/C(=O)c2ccc(OCCCn3cc(CSc4nncs4)nn3)cc2)cc(OC)c1OC")
"1.52 to 10.4 µM"
>>> result("O=c1[nH]cc(F)c(=O)[nH]1")
"7.22 to 10.3 µM"
>>> result("COc1cc(/C=C/C(=O)c2ccc(OCCCn3cc(CSC4=NCCS4)nn3)cc2)cc(OC)c1OC")
"1.52 to 10.4 µM"

====

- Tested on: B16
- test_details: Antiproliferative activity against mouse B16 cells by MTT assay
- Format: functional, cell-based
pIC50: −log10 of the molar value.
reported_endpoint: pIC50

>>> result("CCc1ccc(-c2cn(CCNC3=C(C)C(=O)c4ccccc4C3=O)nn2)cc1")
"4.58 to 5.10"

====

- System: U-251
- test_details: Antiproliferative activity against human U251 cells by MTT assay
- Type: functional, cell-based
reported_endpoint: IC50

>>> result("COC(=O)c1ccc(-c2cn(CC(=O)O[C@H]3c4cc5c(cc4[C@@H](c4cc(OC)c(OC)c(OC)c4)[C@H]4C(=O)OC[C@@H]43)OCO5)nn2)cc1")
"19.6 to 55.3 µM"

====

Some compounds, each annotated with its measured pIC50.
- System: HCT-116
- test_details: Antiproliferative activity against human HCT116 cells assessed as reduction in cell viability after 24 hrs by MTT assay
- Type: functional, cell-based
- run_conditions: HCT-116, 24 h
pIC50: −log10 of the molar value.
reported_endpoint: pIC50

>>> result("C#Cc1cccc(Nc2ncnc3cc(OCCOC)c(OCCOC)cc23)c1 [ERLOTINIB]")
"4.57 to 4.94"
>>> result("COc1cc2nc(Cl)nc(Nc3ccc(Cn4cc(-c5ccccc5)nn4)cc3)c2cc1OC")
"4.17 to 4.68"

====

- Tested on: HeLa
- test_details: Antiproliferative activity against human HeLa cells assessed as reduction in cell viability after 24 hrs by MTT assay
- Format: functional, cell-based
reported_endpoint: IC50 (µg/mL)

>>> numeric_result("COc1ccc(-c2nnn(Cc3cc(F)ccc3F)c2-c2nc3cc(C)ccc3o2)cc1")
6.8

====

- Tested on: HL-60
- test_details: Antiproliferative activity against human HL60 cells assessed as reduction in cell viability after 48 hrs by MTT assay
- Format: functional, cell-based
- run_conditions: HL-60, 48 h
Some compounds, each annotated with its measured IC50.
reported_endpoint: IC50

>>> result("COc1cc([C@@H]2c3cc4c(cc3[C@@H](O[C@@H]3O[C@@H]5CO[C@@H](C)O[C@H]5[C@H](O)[C@H]3O)[C@H]3COC(=O)[C@H]23)OCO4)cc(OC)c1O [ETOPOSIDE]")
"8.12 to 32.8 µM"
>>> result("COc1cc([C@@H]2c3cc4c(cc3[C@H](n3cc(COCC(COCc5cn([C@H]6c7cc8c(cc7[C@@H](c7cc(OC)c(O)c(OC)c7)[C@H]7C(=O)OC[C@@H]76)OCO8)nn5)O[C@@H]5O[C@H](COC(C)=O)[C@@H](OC(C)=O)[C@H](OC(C)=O)[C@H]5OC(C)=O)nn3)[C@H]3COC(=O)[C@H]23)OCO4)cc(OC)c1O (some centres undefined)")
"0.43 to 30.5 µM"
>>> result("CCCC(=O)OC[C@H]1O[C@@H](OC(COCc2cn([C@H]3c4cc5c(cc4[C@@H](c4cc(OC)c(O)c(OC)c4)[C@H]4C(=O)OC[C@@H]43)OCO5)nn2)COCc2cn([C@H]3c4cc5c(cc4[C@@H](c4cc(OC)c(O)c(OC)c4)[C@H]4C(=O)OC[C@@H]43)OCO5)nn2)[C@H](OC(=O)CCC)[C@@H](OC(=O)CCC)[C@@H]1OC(=O)CCC (some centres undefined)")
"0.43 to 30.5 µM"
>>> result("CCCC(=O)OC[C@H]1O[C@@H](OC(COCc2cn([C@H]3c4cc5c(cc4[C@@H](c4cc(OC)c(OC)c(OC)c4)[C@H]4C(=O)OC[C@@H]43)OCO5)nn2)COCc2cn([C@H]3c4cc5c(cc4[C@@H](c4cc(OC)c(OC)c(OC)c4)[C@H]4C(=O)OC[C@@H]43)OCO5)nn2)[C@H](OC(=O)CCC)[C@@H](OC(=O)CCC)[C@@H]1OC(=O)CCC (some centres undefined)")
"0.43 to 3.5 µM"

====

- Test system: SK-OV-3
- test_details: Antiproliferative activity against human SKOV3 cells assessed as reduction in cell viability after 48 hrs by MTT assay
- Type: functional, cell-based
- run_conditions: SK-OV-3, 48 h
reported_endpoint: IC50

>>> result("O=C(NCc1cn(-c2ccc(F)cc2)nn1)C(=O)c1c[nH]c2ccccc12")
"> 100 µM"
>>> result("CCc1ccc(-n2cc(CNC(=O)C(=O)c3c[nH]c4ccccc34)nn2)cc1")
"> 100 µM"
